These measurements were taken from patent US20070191435A1.

assay: Solubility in water, visual, confirmed by HPLC assay of a saturated solution; assay type: physicochemical; details: thermodynamic from solid
OUTCOME_MEASURE: solubility (mg/mL)

> print(dat)
                                   compound  unit.string  observed.result
1  CN(CCOc1ccc(CC2SC(=O)NC2=O)cc1)c1ccccn1.Cl (stereo not shown) [Hydrochloride]        mg/mL               25
